- target or test system: Dimeric Mouse Ang-2FD conjugated to human IgG1 (mouse (Mus musculus))
- Sequence (chain, as listed by the source limits assumed): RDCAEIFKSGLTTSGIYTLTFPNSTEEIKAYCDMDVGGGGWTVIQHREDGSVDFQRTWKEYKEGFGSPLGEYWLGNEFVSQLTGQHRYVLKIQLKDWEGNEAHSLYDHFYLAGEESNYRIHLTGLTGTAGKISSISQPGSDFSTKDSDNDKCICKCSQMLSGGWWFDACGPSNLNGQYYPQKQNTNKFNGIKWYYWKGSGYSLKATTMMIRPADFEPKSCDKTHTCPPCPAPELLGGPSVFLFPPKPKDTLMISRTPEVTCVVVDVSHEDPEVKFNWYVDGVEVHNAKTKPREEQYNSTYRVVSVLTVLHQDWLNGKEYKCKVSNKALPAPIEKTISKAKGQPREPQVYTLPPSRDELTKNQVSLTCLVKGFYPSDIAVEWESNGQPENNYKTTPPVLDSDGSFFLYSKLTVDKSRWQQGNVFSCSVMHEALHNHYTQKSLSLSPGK
- test: SPR, antibody captured, room temperature
property name: pKd
Remember, pKd is on a log scale: it is -log10 of the molar concentration.

Inquiry: # pKd lookup, item H1M724N (antibody, V domains shown) VH: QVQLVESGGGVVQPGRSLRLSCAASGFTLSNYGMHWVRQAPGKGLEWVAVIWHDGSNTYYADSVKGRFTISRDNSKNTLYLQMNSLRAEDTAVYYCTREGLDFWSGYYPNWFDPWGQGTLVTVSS VL: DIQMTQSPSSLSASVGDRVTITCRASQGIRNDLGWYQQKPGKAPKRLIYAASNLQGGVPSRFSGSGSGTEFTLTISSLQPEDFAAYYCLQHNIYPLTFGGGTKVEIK
Reply text: 9.16
